experimental system: biotinylated human DLL3 protein expressed as a human IgG1 fusion protein (human) (UniProt Q9NYJ7)
Sequence (Q9NYJ7 other isoform, or with tags, fused parts or gaps): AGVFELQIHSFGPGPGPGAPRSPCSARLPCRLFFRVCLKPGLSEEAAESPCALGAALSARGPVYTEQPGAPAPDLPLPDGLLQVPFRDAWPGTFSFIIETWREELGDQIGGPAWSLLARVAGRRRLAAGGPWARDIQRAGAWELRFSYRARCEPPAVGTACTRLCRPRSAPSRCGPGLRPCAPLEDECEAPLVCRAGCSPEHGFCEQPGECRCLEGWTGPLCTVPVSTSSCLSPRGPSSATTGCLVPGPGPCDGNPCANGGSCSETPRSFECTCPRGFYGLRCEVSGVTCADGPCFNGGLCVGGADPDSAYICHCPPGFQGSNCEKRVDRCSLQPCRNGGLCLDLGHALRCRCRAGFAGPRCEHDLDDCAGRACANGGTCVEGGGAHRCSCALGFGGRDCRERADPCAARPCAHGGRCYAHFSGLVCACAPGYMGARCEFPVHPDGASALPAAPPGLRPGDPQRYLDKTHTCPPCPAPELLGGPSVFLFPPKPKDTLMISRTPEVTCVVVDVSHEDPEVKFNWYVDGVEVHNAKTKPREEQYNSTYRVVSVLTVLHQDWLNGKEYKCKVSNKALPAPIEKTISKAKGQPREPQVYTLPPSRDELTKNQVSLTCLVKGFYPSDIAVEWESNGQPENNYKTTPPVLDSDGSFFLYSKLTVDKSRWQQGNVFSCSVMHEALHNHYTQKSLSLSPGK
assay comment: Octet BLI; biotinylated huDLL3-IgG1 fusion on streptavidin tips; single 50 nM; conditioned medium
quantity: Kd (nM)
Express it in nM; write the number only.

Find the recorded Kd belonging to anti-DLL3 trispecific protein 4F010 (protein, part only; not given: anti-CD3 and anti-albumin domains, part only) chain, part: EVQLVESGGGLVQPGGSLTLSCAASGSSVSFLSMAWYRQAPGKKRELVAGISIDGSTDYIKSVKGRFTISRDNAKNSVYLQMNSLRAEDTAVYYCYAYRWTTRYRYWGQGTLVTVSSGGGGSGGGSGGGGSGGGSHHHHHH and report it. 5.8

Find the recorded Kd belonging to anti-DLL3 trispecific protein 2D011 (protein, part only; not given: anti-CD3 fragment and anti-albumin sdAb, part only) chain, part: EVQLVESGGGLVQPGGSLTLSCVASGTTSSINAMGWYRRAPGKQRELVAGISSDGSKVYADSVKGRFTISRDNAKNSVYLQMNSLRAEDTAVYYCYYFRTVWGSSMRYWGQGTLVTVSSGGGGSGGGSGGGGSGGGSHHHHHH and report it. 5.4

Find the recorded Kd belonging to anti-DLL3 trispecific protein 3B05 (protein, part only; not given: anti-CD3 and anti-albumin domains, part only) chain, part: EVQLVESGGGLVQPGGSLTLSCVASGSSVKFLSMAWYRQAPGKKRELVAGISADGSTTYIDSVKGRFTISRDNAKNSVYLQMNSLRAEDTAVYYCYAYRWTTRRTYWGQGTLVTVSSGGGGSGGGSGGGGSGGGSHHHHHH and report it. 7.2

Find the recorded Kd belonging to anti-DLL3 trispecific protein 4D01 (protein, part only; not given: CD3 binder and albumin binder, part only) chain, part: EVQLVESGGGLVQPGGSLTLSCAASGSSVRFLSMAWYRQAPGKKRELVAGISADGSTVYIDSVKGRFTISRDNAKNSVYLQMNSLRAEDTAVYYCYAYRWTTRRTYWGQGTLVTVSSGGGGSGGGSGGGGSGGGSHHHHHH and report it. 3.7
